The reported measurements were obtained from patent US20130244963A1.

test system: pBLNK; assay: BCR-induced pBLNK formation in NHL cell lines; type: cell-based; details: Homo sapiens, SU-DHL-6; SU-DHL6
pIC50: −log10 of the molar value.
QUANTITY: pIC50

Ask: Field request: pIC50 | item: NC(=O)c1cnc(N[C@@H]2CCCC[C@@H]2N)nc1Nc1cccc(-n2nccn2)c1
Reply: 7.70 to 8.00

----------
test system: pERK; assay: BCR-induced pERK formation in NHL cell lines; format: cell-based; conditions: Homo sapiens, SU-DHL-6; SU-DHL6
QUANTITY: IC50 (µM)
Supply the numeric figure in µM, leaving out any unit text.

Ask: Field request: IC50 | item: NC(=O)c1cnc(N[C@@H]2CCCC[C@@H]2N)nc1Nc1cccc(-n2nccn2)c1 [Compound 1]
Reply: 0.1
